# Tested on: PC-3
# test_summary: Antiproliferative activity against human PC-3 cells assessed as inhibition of cell growth measured after 48 hrs by MTT assay
# Format: functional, cell-based
# condition_label: PC-3, 48 h
measurement_name: pIC50
Answers are plain numbers, as −log10 of the molar value.

Data request, read-out pIC50, for Cc1nn(C)c2nn3nnnc3nc12 6.40

###

# test_summary: Ratio of IC50 for antiproliferative activity against human PC-3 cells assessed as inhibition of cell growth under normoxia condition to IC50 for antiproliferative activity against human PC-3 cells assessed as inhibition of cell growth under hypoxia condition
# Format: functional
Provide the reported Ratio IC50 of each item.

• O=[N+]([O-])c1ccc2c(c1)[n+]([O-])nc(NC1CCCCC1)[n+]2[O-] = 1.07
• CCCCCCNc1n[n+]([O-])c2cc([N+](=O)[O-])ccc2[n+]1[O-] = 1.6
• [O-][n+]1nc(NC2CCCCC2)[n+]([O-])c2ccc(Cl)cc21 = 2
• [O-][n+]1nc(Nc2ccccc2)[n+]([O-])c2ccccc21 = 2.3
• COc1ccc2c(c1)[n+]([O-])nc(NCC1CCCCC1)[n+]2[O-] = 1

Would you mind giving Ratio IC50 for every molecule in the list below?
1. O=[N+]([O-])c1ccc2c(c1)[n+]([O-])nc(NCc1ccccc1)[n+]2[O-]
2. CCNc1n[n+]([O-])c2cc(C)ccc2[n+]1[O-]

1. 1.89
2. 2.1

Would you mind giving Ratio IC50 for every molecule in the list below?
1. [O-][n+]1nc(NCc2ccccc2)[n+]([O-])c2ccc(Cl)cc21
2. CCNc1n[n+]([O-])c2cc([N+](=O)[O-])ccc2[n+]1[O-]

1. 1.4
2. 1.9

Data request, read-out Ratio IC50, for [O-][n+]1nc(Nc2ccccc2)[n+]([O-])c2ccc(Cl)cc21 1.3

Each recorded value in this set is attributed to ChEMBL document CHEMBL5260813.
